- experimentalProtocol: compound binding in COS7 lysate, probe aLAP1, primary screen, cell lysate, small-molecule microarray (AID 1124);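 further: lysate comes from COS7 cells expressing LAP1 and is applied at 0.3 µg/mL; score merges spot fluorescence near 667 nm with signal-to-noise over triplicate slides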
- condition: probe aLAP1, fluorescence, higher = more signal
Ranges used to classify composite z-score: low interval (below -0.06), middle interval (-0.06 to below 0.2), high interval (0.2 or more)

Would you please look over these solved cases?
[[record]]
compound = "CC(C)(C)N1C(=O)[C@H]2[C@@H]3C(=CC[C@H]2C1=O)C(=O)[C@H]1O[C@H]1[C@H]3O"
assignedcategory = "middle interval"

[[record]]
compound = "CCOC(=O)[C@H](Cc1ccccc1)NC(=O)CCC1CC(OC(=O)NCCc2ccc(F)cc2)CC2(CCCC(COC(=O)NCCOc3ccccc3)O2)O1 (stereo partly specified)"
assignedcategory = "high interval"

[[record]]
compound = "O=C1[C@H]2[C@H]3[C@H](O)[C@H](O)CC(=NOCc4ccccc4)[C@H]3CC[C@H]2C(=O)N1C1CCCCC1"
assignedcategory = "low interval"

[[record]]
compound = "COc1ccc(O[C@H]2C=C[C@@H](C#Cc3ccccc3)O[C@@H]2CO)cc1"
assignedcategory = "middle interval"


Q. State the band of CCOC(=O)[C@H](Cc1ccccc1)NC(=O)CCC1CC(OC(=O)NCc2ccc3c(c2)OCO3)CC2(CCCC(COC(=O)NCCOC)O2)O1 (stereo partly specified)
A. low interval

Q. State the band of "C[C@H]1CC[C@@H](C(=O)O)N[C@@H]1c1cccc(N2CCCC2=O)c1"
A. low interval
